Biological target: deadenylylated MtbGS (Mycobacterium tuberculosis)
Construct: made in house; host or cells: E. coli YMC11E with pTBSK
Assay: biochemical
Design: species or system M. tuberculosis
Details: 10μM final concentration, pre-incubation protocol, screen 1; read-out: Deadenylated Mtb GS (% inhibition) Screen 1
// values below are reported inhibition at 10 µM
// return numeric value only (unit: %, not printed)

Past entries and their recorded results:
>>> readout_number("Cc1nc(N)cc(C[n+]2csc(CCOP(=O)(O)O)c2C)n1 [Compound 5016]")
7
>>> readout_number("O=NN(Cc1ccccc1)c1cc(N2CCCC2)ncn1 [Compound 5045]")
44
>>> readout_number("COc1ccc(-c2nc3ccccn3c2Nc2c(C)cccc2C)cc1OC [Compound 10059]")
49
>>> readout_number("c1ccc(CNc2cc(N3CCCC3)ncn2)cc1 [Compound 5029]")
5
>>> readout_number("O=C1NC(C(=O)O)=C(C(=O)O)C(c2ccc([N+](=O)[O-])cc2)N1 (stereo not drawn) [Compound 5012]")
14
>>> readout_number("O=C(O)c1ccncc1 [Compound 5002]")
0

Query: Any idea what its inhibition at 10 µM is? The molecule is OCCNc1cc(N2CCCC2)ncn1 [Compound 5024]
Result: 49

Query: Looking for the measured inhibition at 10 µM of Cc1cccc(C)c1Nc1c(C(C)C)nc2ccccn12 [Compound 10057] , can you help?
Result: 67

Query: // inhibition at 10 µM lookup, key: Nc1nc(O)c2ccccc2n1 [Compound 12004]
Result: 50

Query: Tell me the measured inhibition at 10 µM of Nc1nc(N)c(NC(=O)c2ccccc2)c(O)n1 [Compound 5009] , please.
Result: 57

Query: Tell me the measured inhibition at 10 µM of CP(=O)(O)CC[C@H](N)C(=O)O [PhosT, phosphinotricin, reference compound] , please.
Result: 100

Query: Form field: reported inhibition at 10 µM of NC(CCS(=O)(=O)O)C(=O)O (stereo not drawn) [Compound 5]
Result: 0

====

Target: deadenylylated MtbGS (Mycobacterium tuberculosis)
Construct: made in house; host or cells: E. coli YMC11E with pTBSK
Experiment: biochemical
Set-up: species or system M. tuberculosis
Settings: 10μM final concentration, pre-incubation protocol, screen 3; read-out: Deadenylated Mtb GS (% inhibition) Screen 3
measured parameter: inhibition at 10 µM
Answers without a unit are incomplete; give the number and then its unit.

>>> result("OCCNc1cc(N2CCCC2)ncn1")
"52%"
>>> result("O=NN(Cc1ccccc1)c1cc(N2CCCC2)ncn1")
"54%"
>>> result("Cc1cccc(C)c1Nc1c(C(C)C)nc2ccccn12")
"47%"
>>> result("COc1ccc(-c2nc3ccccn3c2Nc2c(C)cccc2C)cc1OC")
"36%"
>>> result("Nc1nc(N)c(NC(=O)c2ccccc2)c(O)n1")
"44%"

Query: I have this compound here, `c1ccc(CNc2cc(N3CCCC3)ncn2)cc1` , and I need its recorded inhibition at 10 µM.
Result: 7%

Query: Look up inhibition at 10 µM for this compound: `Nc1nc(O)c2ccccc2n1`
Result: 38%

Query: For CP(=O)(O)CC[C@H](N)C(=O)O [PhosT, phosphinotricin, reference compound] , what is its reported inhibition at 10 µM?
Result: 100%

====

Target: adenylylated MtbGS (Mycobacterium tuberculosis, UniProt P9WN39)
Construct: made in house; host or cells: E. coli YMC11E(DE3) with pTBSK and pTBglnE
Sequence (P9WN39 2-478 limits assumed): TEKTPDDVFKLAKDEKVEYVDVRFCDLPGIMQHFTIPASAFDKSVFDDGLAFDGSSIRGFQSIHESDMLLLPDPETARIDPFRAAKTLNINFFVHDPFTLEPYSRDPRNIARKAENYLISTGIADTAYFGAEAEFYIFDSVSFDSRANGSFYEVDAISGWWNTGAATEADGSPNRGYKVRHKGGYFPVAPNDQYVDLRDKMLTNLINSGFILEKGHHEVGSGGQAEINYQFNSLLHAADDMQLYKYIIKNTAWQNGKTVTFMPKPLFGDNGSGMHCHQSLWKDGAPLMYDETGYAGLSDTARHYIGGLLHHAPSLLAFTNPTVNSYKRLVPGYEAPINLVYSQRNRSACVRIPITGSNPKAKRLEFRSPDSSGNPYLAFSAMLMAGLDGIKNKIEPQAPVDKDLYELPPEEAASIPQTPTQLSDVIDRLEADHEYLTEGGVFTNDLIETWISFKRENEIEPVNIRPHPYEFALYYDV
Assay: biochemical
Type: biochemical, M. tuberculosis
Conditions: 10μM final concentration, pre-incubation protocol, screen 1; read-out: Adenylated Mtb GS (% inhibition) Screen 1
Ranges used to classify inhibition at 10 µM: bin A (below 50%), bin B (50% to below 80%), bin C (80% or more)

Here's what some known entries look like.
>>> assigned_category("OCCNc1cc(N2CCCC2)ncn1")
"bin A"
>>> assigned_category("Nc1nc(N)c(NC(=O)c2ccccc2)c(O)n1")
"bin A"

Query: Returns: class label. Input: `Cc1cccc(C)c1Nc1c(C(C)C)nc2ccccn12`
Result: bin C

Query: Input `O=NN(Cc1ccccc1)c1cc(N2CCCC2)ncn1` ; output its category
Result: bin A

Query: Place this compound in its band: `Nc1nc(O)c2ccccc2n1`
Result: bin A

Query: Which inhibition at 10 µM band matches CP(=O)(O)CC[C@H](N)C(=O)O [PhosT, phosphinotricin, reference compound] ?
Result: bin C

Query: Which inhibition at 10 µM band matches NC(CCS(=O)(=O)O)C(=O)O (stereo not drawn) ?
Result: bin A

Query: Sort `O=C(O)c1ccncc1` into one of the categories.
Result: bin B

Query: Just checking, what class would you give O=C1NC(C(=O)O)=C(C(=O)O)C(c2ccc([N+](=O)[O-])cc2)N1 (stereo not drawn) here?
Result: bin B

====

Target: deadenylylated MtbGS (Mycobacterium tuberculosis)
Construct: made in house; host or cells: E. coli YMC11E with pTBSK
Assay: biochemical
Set-up: species or system M. tuberculosis
Conditions: 10μM final concentration, pre-incubation protocol, screen 4; read-out: Deadenylated Mtb GS (% inhibition) Screen 4
measured parameter: inhibition at 10 µM (%)
Give the number; % is assumed, so skip it.

Query: # input compound: `OCCNc1cc(N2CCCC2)ncn1` ; wanted: its inhibition at 10 µM
Result: 44

Query: Query (compound): `O=C(O)c1ccncc1` ; field requested: inhibition at 10 µM
Result: 14

Query: Bench note: what inhibition at 10 µM did NC(CCS(=O)(=O)O)C(=O)O (stereo not drawn) show?
Result: 0

Query: Tell me the measured inhibition at 10 µM of `Nc1nc(O)c2ccccc2n1` , please.
Result: 38

====

Molecular target: deadenylylated MtbGS (Mycobacterium tuberculosis, UniProt P9WN39)
Construct: made in house; host or cells: E. coli YMC11E with pTBSK
Sequence (P9WN39 2-478 limits assumed): as above
Test: biochemical
Parameters: species or system M. tuberculosis
measured parameter: pIC50
Note: pIC50 values are expressed as the negative base-10 logarithm of concentration in M.

Query: API: value(readout=pIC50, system=deadenylylated MtbGS (Mycobacterium tuberculosis, UniProt P9WN39)) for record CS(=N)(=O)CC[C@H](N)C(=O)O (stereo partly drawn) [MSO, L-methionine-S,R-sulphoximine, reference compound]
Result: 5.80

====

Molecular target: deadenylylated MtbGS (Mycobacterium tuberculosis, UniProt P9WN39)
Construct: made in house; host or cells: E. coli YMC11E with pTBSK
Assay: biochemical
Parameters: species or system M. tuberculosis
Settings: 10μM final concentration, pre-incubation protocol, screen 2; read-out: Deadenylated Mtb GS (% inhibition) Screen 2
Label class 1 when inhibition at 10 µM is at or above 40%; anything below gets class 0.

>>> assigned_category("O=NN(Cc1ccccc1)c1cc(N2CCCC2)ncn1 [Compound 5045]")
"class 1"
>>> assigned_category("Cc1cccc(C)c1Nc1c(C(C)C)nc2ccccn12 [Compound 10057]")
"class 1"
>>> assigned_category("O=C1NC(C(=O)O)=C(C(=O)O)C(c2ccc([N+](=O)[O-])cc2)N1 (stereo not drawn) [Compound 5012]")
"class 0"
>>> assigned_category("CP(=O)(O)CC[C@H](N)C(=O)O [PhosT, phosphinotricin, reference compound]")
"class 1"
>>> assigned_category("OCCNc1cc(N2CCCC2)ncn1 [Compound 5024]")
"class 1"

Query: Does c1ccc(CNc2cc(N3CCCC3)ncn2)cc1 [Compound 5029] have a reported inhibition at 10 µM of at least 40%?
Result: class 0

Query: Reported inhibition at 10 µM at or above 40%? Cc1nc(N)cc(C[n+]2csc(CCOP(=O)(O)O)c2C)n1 [Compound 5016]
Result: class 0

Query: Is the recorded value of inhibition at 10 µM equal to or greater than 40% for this compound? O=C(O)c1ccncc1 [Compound 5002]
Result: class 0

====

Target: adenylylated MtbGS (Mycobacterium tuberculosis, UniProt P9WN39)
Construct: made in house; host or cells: E. coli YMC11E(DE3) with pTBSK and pTBglnE
Assay: biochemical
Assay type: biochemical, M. tuberculosis
Settings: 10μM final concentration, pre-incubation protocol, average over the 4 screens; read-out: Adenylated Mtb GS (% inhibition) AVG
# inhibition at 10 µM listing for each entry below
// units = %; emit number, no label

Some entries whose results are on file:
>>> readout_number("O=NN(Cc1ccccc1)c1cc(N2CCCC2)ncn1")
0
>>> readout_number("c1ccc(CNc2cc(N3CCCC3)ncn2)cc1")
60

We now examine a further molecule.
Query: Need inhibition at 10 µM, item O=C1NC(C(=O)O)=C(C(=O)O)C(c2ccc([N+](=O)[O-])cc2)N1 (stereo not shown)
Result: 40

====

Biological target: adenylylated MtbGS (Mycobacterium tuberculosis, UniProt P9WN39)
Construct: made in house; host or cells: E. coli YMC11E(DE3) with pTBSK and pTBglnE
Test: biochemical
Format: biochemical, M. tuberculosis
Details: 10μM final concentration, pre-incubation protocol, screen 4; read-out: Adenylated Mtb GS (% inhibition) Screen 4
measured parameter: inhibition at 10 µM (%)
# value in %; strip the unit string

Some entries whose results are on file:
>>> readout_number("Nc1nc(N)c(NC(=O)c2ccccc2)c(O)n1")
22
>>> readout_number("OCCNc1cc(N2CCCC2)ncn1")
36
>>> readout_number("Cc1cccc(C)c1Nc1c(C(C)C)nc2ccccn12")
100
>>> readout_number("Cc1nc(N)cc(C[n+]2csc(CCOP(=O)(O)O)c2C)n1")
30
>>> readout_number("O=C1NC(C(=O)O)=C(C(=O)O)C(c2ccc([N+](=O)[O-])cc2)N1 (stereo not drawn)")
42
>>> readout_number("Nc1nc(O)c2ccccc2n1")
30
>>> readout_number("COc1ccc(-c2nc3ccccn3c2Nc2c(C)cccc2C)cc1OC")
100
>>> readout_number("NC(CCS(=O)(=O)O)C(=O)O (stereo not drawn)")
29
>>> readout_number("CP(=O)(O)CC[C@H](N)C(=O)O [PhosT, phosphinotricin, reference compound]")
100
>>> readout_number("c1ccc(CNc2cc(N3CCCC3)ncn2)cc1")
60

Query: Quick check: inhibition at 10 µM of `O=NN(Cc1ccccc1)c1cc(N2CCCC2)ncn1` ?
Result: 0

Query: State the recorded inhibition at 10 µM for this entry: `O=C(O)c1ccncc1`
Result: 35
